Test system: Mast cells from the peritoneal tissue of rats
assay protocol: Inhibition of substance P-induced release of histamine from mast cells
Format: cell-based, rat
condition label: positive control, test series 3.2 (oat fraction vs reconstituted product); read-out: concentration for 50% inhibition of substance P-induced release of histamine
property: IC50

Entry [Ca+2].[Cl-].[Cl-] [calcium chloride, reference compound] , system Mast cells from the peritoneal tissue of rats: what IC50 was measured?
432 µM
